Molecular target: T1, human Y2 receptor (human, UniProt P49146 1-381)
T1 sequence (looked up): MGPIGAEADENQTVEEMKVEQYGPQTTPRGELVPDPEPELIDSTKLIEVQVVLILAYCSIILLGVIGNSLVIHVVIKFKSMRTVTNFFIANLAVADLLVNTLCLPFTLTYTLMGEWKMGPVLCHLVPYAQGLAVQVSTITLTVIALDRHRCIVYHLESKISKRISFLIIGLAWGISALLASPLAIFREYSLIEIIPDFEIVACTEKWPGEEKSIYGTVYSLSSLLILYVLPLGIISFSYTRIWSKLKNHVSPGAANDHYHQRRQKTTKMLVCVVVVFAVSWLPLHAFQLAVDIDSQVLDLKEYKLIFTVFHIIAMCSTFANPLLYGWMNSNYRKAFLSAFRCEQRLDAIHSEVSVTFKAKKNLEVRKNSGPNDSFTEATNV
Test: cell-based or functional assay
Non-standard residues stand in square brackets, D forms with d. *: point of attachment. X11 = ((1S)-1-carboxy-3-methylbutyl)carbamoyl, CC(C)C[C@H](NC(=O)*)C(=O)O; Cha = N[C@@H](CC1CCCCC1)C(=O)O; Aib = CC(C)(N)C(=O)O
VALUE_KIND: GBA EC50 Ratio (vs PYY(3-36)), [35S]GTPγS (ratio)
Report only the number, with the unit ratio understood.

Qu. Check the records and state GBA EC50 Ratio (vs PYY(3-36)), [35S]GTPγS for X11-S[dP]RH[Cha][Cha]NL[Aib]TRQR[Cha]-NH2 (SMILES CC(C)C[C@H](NC(=O)N[C@@H](CO)C(=O)N1CCC[C@@H]1C(=O)N[C@@H](CCCNC(=N)N)C(=O)N[C@@H](Cc1c[nH]cn1)C(=O)N[C@@H](CC1CCCCC1)C(=O)N[C@@H](CC1CCCCC1)C(=O)N[C@@H](CC(N)=O)C(=O)N[C@@H](CC(C)C)C(=O)NC(C)(C)C(=O)N[C@H](C(=O)N[C@@H](CCCNC(=N)N)C(=O)N[C@@H](CCC(N)=O)C(=O)N[C@@H](CCCNC(=N)N)C(=O)N[C@@H](CC1CCCCC1)C(N)=O)[C@@H](C)O)C(=O)O, also called compound No. 184) [[(1S)-1-carboxy-3-methylbutyl]carbamoyl-[D-Pro24, Cha27,28,36, Aib31]-PYY(23-36)]
Ans. 2.9

Recorded values, source patent US20120172293A1.
